- targetUnderTest: Chromo domain-containing protein 1 (Saccharomyces cerevisiae (strain ATCC 204508 / S288c) (Baker's yeast)) (UniProt P32657)
- Sequence (P32657 whole entry, the tested form may be a part): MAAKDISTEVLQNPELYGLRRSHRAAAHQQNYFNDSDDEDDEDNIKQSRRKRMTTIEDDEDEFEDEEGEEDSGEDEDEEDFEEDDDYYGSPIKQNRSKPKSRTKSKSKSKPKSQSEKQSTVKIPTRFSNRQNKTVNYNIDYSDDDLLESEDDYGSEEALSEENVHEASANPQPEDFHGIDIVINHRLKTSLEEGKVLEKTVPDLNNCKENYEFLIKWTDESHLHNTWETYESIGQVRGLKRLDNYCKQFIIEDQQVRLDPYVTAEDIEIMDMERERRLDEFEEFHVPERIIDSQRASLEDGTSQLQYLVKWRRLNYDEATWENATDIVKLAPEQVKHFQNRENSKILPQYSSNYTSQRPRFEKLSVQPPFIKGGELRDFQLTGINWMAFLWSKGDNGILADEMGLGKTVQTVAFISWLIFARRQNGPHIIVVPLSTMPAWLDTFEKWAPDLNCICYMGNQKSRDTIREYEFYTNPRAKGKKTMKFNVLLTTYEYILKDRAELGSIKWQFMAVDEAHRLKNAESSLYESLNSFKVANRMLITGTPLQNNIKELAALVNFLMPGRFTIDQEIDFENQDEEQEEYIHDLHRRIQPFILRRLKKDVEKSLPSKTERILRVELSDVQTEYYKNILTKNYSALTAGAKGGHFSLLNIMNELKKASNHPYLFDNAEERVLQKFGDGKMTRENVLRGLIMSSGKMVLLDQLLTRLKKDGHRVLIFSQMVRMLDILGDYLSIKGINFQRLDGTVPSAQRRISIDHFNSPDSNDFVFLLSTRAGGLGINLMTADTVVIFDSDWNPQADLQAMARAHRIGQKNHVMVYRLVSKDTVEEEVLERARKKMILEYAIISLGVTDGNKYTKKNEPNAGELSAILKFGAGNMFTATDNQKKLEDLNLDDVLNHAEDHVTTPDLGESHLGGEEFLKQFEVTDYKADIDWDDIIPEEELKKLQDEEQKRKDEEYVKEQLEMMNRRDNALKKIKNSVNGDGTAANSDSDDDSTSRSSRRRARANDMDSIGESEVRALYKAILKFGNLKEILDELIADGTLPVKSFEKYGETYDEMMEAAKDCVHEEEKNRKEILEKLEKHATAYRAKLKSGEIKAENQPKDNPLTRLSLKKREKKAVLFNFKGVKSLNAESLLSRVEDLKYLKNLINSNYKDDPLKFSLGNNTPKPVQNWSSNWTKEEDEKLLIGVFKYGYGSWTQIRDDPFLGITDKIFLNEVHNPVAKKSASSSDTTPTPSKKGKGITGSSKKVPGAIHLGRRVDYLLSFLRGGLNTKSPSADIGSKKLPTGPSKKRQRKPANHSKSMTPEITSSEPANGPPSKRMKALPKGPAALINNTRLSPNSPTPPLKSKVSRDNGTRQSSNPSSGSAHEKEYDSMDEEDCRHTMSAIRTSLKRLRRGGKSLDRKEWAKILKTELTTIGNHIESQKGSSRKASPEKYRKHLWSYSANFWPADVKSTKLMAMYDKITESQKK
- testDetails: ScCHD-1 Enzyme Inhibition Assay; also: in the data most compounds retested in dose-response had high values
- Assay type: functional
- Parameters: scale not given: direction of the effect not stated beside the values
- testParameters: 30 µM
Measured Percent Effect accompanies every entry in the list below.
# value in %; strip the unit string

Q) I'd like to know its Percent Effect. The compound in question is `CC(C)n1ccnc1CN1CCCN(C(=O)c2nccnc2N)CC1`
A) -3.56

---
Q) I'd like to know its Percent Effect. The compound in question is c1ccc(-n2ccc(CN3CCCC3Cn3cccn3)n2)cc1 (stereo unspecified)
A) 3.12

Q) I'd like to know its Percent Effect. The compound in question is `Fc1cccc(-c2nc(CN3CCn4c(nnc4C4CC4)C3)co2)c1`
A) -19

Q) I'd like to know its Percent Effect. The compound in question is CC(C)N(C)C(=O)CN1CCCC(c2ccc(C(=O)O)cc2)C1 (stereo unspecified)
A) -6.15

Q) I'd like to know its Percent Effect. The compound in question is `COC(=O)C1CCN(C(=O)c2ccc(C)c(NS(C)(=O)=O)c2)CC1`
A) 5.38

Q) I'd like to know its Percent Effect. The compound in question is `COc1cc(CNCc2ccc(NC(=O)NC(C)C)cc2)cc(OC)c1`
A) -10.7

###

- targetUnderTest: AMP-activated protein kinase, AMPK (Homo sapiens) (UniProt P54646+O43741+P54619+Q9UGJ0+Q9Y478+Q13131+Q9UGI9)
- testDetails: AMP-dependent Kinase enzyme assay. An in vitro enzyme assay that detects ADP turnover that is directly proportional to AMPK activity. This uses naive AMPK that is activated during the assay with MK-8722
- Format: functional
- Design: scale not given: direction of the effect not stated beside the values
- testParameters: 30 µM
Measured Percent Effect accompanies every entry in the list below.
# value in %; strip the unit string

As a guide, the following entries are already answered.
Q) I'd like to know its Percent Effect. The compound in question is Cc1ccc(O)c(CN2CCCCC2CCN2CCOCC2)c1 (stereo not drawn)
A) 8.46

Q) I'd like to know its Percent Effect. The compound in question is `Cc1nnc(N2CCc3cnc(C(C)C)nc3C2)c(C#N)c1C`
A) -15.2

---
Q) I'd like to know its Percent Effect. The compound in question is `CCn1cc(NC(=O)c2cccc(CN3C[C@@H](C)O[C@@H](C)C3)c2)nn1`
A) 1.85

###

- targetUnderTest: AMP-activated protein kinase, AMPK (Homo sapiens) (UniProt P54646+O43741+P54619+Q9UGJ0+Q9Y478+Q13131+Q9UGI9)
- testDetails: AMP-dependent Kinase enzyme assay. An in vitro enzyme assay that detects ADP turnover that is directly proportional to AMPK activity. This uses naive AMPK that is activated during the assay with MK-8722
- Type: functional
- Set-up: scale not given: direction of the effect not stated beside the values
- testParameters: 30 µM
recordedEndpoint: Percent Effect (%)
# value in %; strip the unit string

As a guide, the following entries are already answered.
Q) I'd like to know its Percent Effect. The compound in question is CCC(NC(=O)NC1CCN(S(C)(=O)=O)CC1)c1cccs1 (stereo unspecified)
A) -3.19

Q) I'd like to know its Percent Effect. The compound in question is CN1CCCC1CCNC(=O)c1ccccc1-n1cc(CN)cn1 (stereo unspecified)
A) 11.2

Q) I'd like to know its Percent Effect. The compound in question is Cc1cnc(Nc2cccc(C3CCCN3Cc3cn(C)nc3C)n2)s1 (stereo unspecified)
A) 21.4

Q) I'd like to know its Percent Effect. The compound in question is CC(NC(=O)NCc1ccccn1)c1cccs1 (stereo unspecified)
A) -0.209

Q) I'd like to know its Percent Effect. The compound in question is `NC(=O)CNC(=O)c1cc(Cn2cnc3ccccc32)[nH]n1`
A) -3.37

---
Q) I'd like to know its Percent Effect. The compound in question is `Cc1cnc(CN(C)Cc2cccc(OC(F)(F)F)c2)cn1`
A) -3.05
